Entry source: patent US20230348616A1

- measured_target: T1, gp100 (human)
- T1 construct: cell surface;cell surface complex; also called HLA-A2 / gp100 peptide complex on T2 cells
- test: flow cytometry on peptide-pulsed T2 cells, scFv 100 nM
Can you tell me standardized gMFI for the items I'm about to list?
Respond using a number only.

standardized gMFI for NYC-0003 (scFv, not shown: small tags and cut ends, also called 3M4E5 scFv; NYC-0003 tag adduct) scFv: EVQLLESGGGLVQPGGSLRLSCAASGFTFSTYQMSWVRQAPGKGLEWVSGIVSSGGSTAYADSVKGRFTISRDNSKNTLYLQMNSLRAEDTAVYYCAGELLPYYGMDVWGQGTTVTVSSGGGGSGGGGSGGGGSQSELTQPRSVSGSPGQSVTISCTGTSRDVGGYNYVSWYQQHPGKAPKLIIHDVIERSSGVPDRFSGSKSGNTASLTISGLQAEDEADYYCWSFAGSYYVFGTGTDVTVL is 0.39

// standardized gMFI lookup, binder = NYA-2047 (scFv) scFv: GQVQLVESGGGVVQPGRSLRLSCAASGFSIRSYDMHWVRQAPGKGLEWVATISYDGSQKYYADSVKGRFTISRDNSKNTLYLQMSSLRAEDTAVYHCARGSSGHYEAFDIWGQGTLVTVSSGGGGSGGGGSGGGGSQSVLTQPPSVSAAPGQKVTISCSGSSSNIGNWYVSWYQQLPGTAPKLLIYDNNKRPSGIPDRFSGSKSGTSATLGITGLQTGDEADYYCGTWDSSLSAPWVFGGGTKVTVLGAAAGAGGDYKDDDDKGAAAHHHHHH , result: 0.39

standardized gMFI in this record for NYA-2044 (scFv, also called NYA-2044 tag adduct) scFv: GEVQLVESGGGLVQPGGSLRLSCAASGFSIRSYDIHWVRLAPGKGLEWVATISYDGSQKYYADSVKGRFTISRDESKNTLYLQMNSLRAEDTAVYHCARGSSGHYEAFDIWGQGTLVTVSSGGGGSGGGGSGGGGSQSVLTQPPSVSAAPGQKVTISCSGSSSNIGNWYVSWYQQLPGTAPKLLIYDNNKRPSGIPDRFSGSKSGTSATLGITGLQTGDEADYYCGTWDSSLSAPWVFGGGTKVTVLGAAAGAGGDYKDDDDKGAAAHHHHHH : 0.39

Consider NYA-2048 (scFv, also called NYA-2048 tag adduct) scFv: GQVQLVESGGGVVQPGRSLRLSCAASGFSIRSYDMHWVRQAPGKGLEWVATISYDGSQKYYADSVKGRFTISRDNSKNTLYLQMSSLRAEDTAVYHCARGSSGHYEAFDIWGQGTLVTVSSGGGGSGGGGSGGGGSQSVLTQPPSASGTPGQRVTISCSGSSSNIGNWYVSWYQQLPGTAPKLLIYDNNKRPSGVPDRFSGSKSGTSASLAISGLQSEDEADYYCGTWDSSLSAPWVFGGGTKLTVLGAAAGAGGDYKDDDDKGAAAHHHHHH . Its measured standardized gMFI is 0.41
